# assay.explanation: DNA intercalators displacing acridine orange, dose response, artefact control for KSHV LANA DNA-binding inhibitor project, biochemical, fluorescence polarization, cherry-picked samples, set 2 (AID 504727)
# measurement.conditions: Acridine orange-DNA displacement; series mostly up to 35 µM
The source made the active and inactive calls.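 Rule for the calls: active = fitted half-maximal concentration AC50 at or below ten times the highest valid tested dose, with signal falling as DNA is displaced (actives reach about 34 µM in these data); inconclusive = flat fit at moderate signal loss, or poor fit quality; inactive = the rest, including signal rising instead of falling.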
experimental.endpoint: AC50

COc1ccc(NC(=O)Cc2nnc(SCC(=O)Nc3nccs3)n2C)cc1	inactive
Nc1c(C(=O)Nc2ccccc2F)sc2nc(Cc3ccccc3)cc(C(F)(F)F)c12	20.2 µM (active)
CC(C)Cn1c(N)c(C(=O)CSc2nnc(-c3ccco3)n2C)c(=O)n(C)c1=O	inactive

Reference for the values: PubChem BioAssay AID504727
